# System: Streptococcus pneumoniae
# assay.details: Antibacterial activity against Streptococcus pneumoniae 5844 harbouring moxifloxacin resistant DNA gyrase and topoisomerase IV mutant assessed as inhibition of bacterial growth incubated for 18 hrs by CLSI based serial agar dilution method
# Type: functional
# condition.info: Streptococcus pneumoniae, 5844, 18 h
reported.endpoint: MIC (µg/mL)
# unit: µg/mL | format: bare number

Worked cases, answers included:
CCC1(CC)CN(c2c(F)cc3c(=O)c(C(=O)O)cn(C4CC4)c3c2OC)CCC1N (stereo not given)
6.25
CCC1(C)CN(c2c(F)cc3c(=O)c(C(=O)O)cn(C4CC4)c3c2OC)CCC1NC (stereo not given)
6.25

Next, consider the following compound.
Exercise: Return reported MIC; argument: CCC1(C)CN(c2c(F)cc3c(=O)c(C(=O)O)cn(C4CC4)c3c2OC)CCC1N (stereo not given)
Solution: 2.5

The reported numbers originate from ChEMBL document CHEMBL5143624.
